system: NCI-H226 lung; assay: NCI tumour cell line growth inhibition, 48 h
PROPERTY LABEL: TGI

{"columns": ["MOLECULE", "TGI"],
 "data": [
  ["CCOC(=O)c1ccc2c(c1)nc(/C=C/c1ccc(Cl)cc1)n2-c1cc(C(C)(C)C)[nH]n1", "27.2 µM"],
  ["CCCC[n+]1c(/C=C\\c2c(OC)cc(OC)cc2OC)ccc2ccccc21", "12.6 µM"],
  ["COc1ccc2c(c1)[n+]([O-])c(-c1ccc(Br)cc1)c(N)[n+]2[O-]", "> 100 µM"],
  ["CSc1c(C(=O)Nc2ccc(C)cc2)c(N)n(N)c(=O)c1C#N", "> 100 µM"],
  ["CCOC(=O)C(=[N+]=[N-])C(=O)CN1C(=O)C2CC(C)=C(C)CC2C1O (stereo unspecified)", "> 100 µM"],
  ["CSc1ccc(OCC2OC2O)cc1 (stereo unspecified)", "> 100 µM"]
]}

Your task in this section: give TGI for each listed record.
1. C[C@]12CC[C@H]3[C@@H](CCC4=CC(=O)CC[C@@]43C)[C@@H]1CC[C@@H]2C(=O)COS(=O)(=O)c1ccc(Br)cc1
2. CCCCCCC/C=C/[C@H]1O[C@]2(O)C(=O)C=C3C[C@@H](O[C@@H]4O[C@H](CO)[C@@H](O)C(O)[C@@H]4O)C[C@@H]3[C@H]2C=C1C (stereo partly specified)
3. CCCCCCCCCCCCCCCC(=O)N[C@H](/C=C/[C@H](O)CCCCCCCCCCCCC)CO
4. CC1(C)OCC(C2OC(OC(=O)c3ccc([N+](=O)[O-])cc3)C3OC(C)(C)OC23)O1 (stereo unspecified)

Response:
1: 39.3 µM; 2: 13.7 µM; 3: > 100 µM; 4: > 100 µM

Your task in this section: give TGI for each listed record.
1. Cc1ccc(NCC(=O)N2CC(=O)Nc3ccccc32)cc1
2. O=C(N/C(=C\c1ccc(/C=C(\NC(=O)c2ccccc2)c2nc3cc(Cl)ccc3[nH]2)cc1)c1nc2cc(Cl)ccc2[nH]1)c1ccccc1

Response:
["> 100 µM", "> 100 µM"]

Your task in this section: give TGI for each listed record.
1. Cc1cc2oc(-c3ccccc3)c(C)c(=O)c2c2c1OC(C)(C)S2
2. COc1cc(OC)c2c(=O)c(OC)c(-c3ccc4c(c3)OCO4)oc2c1OC
3. N#CCCN(CCC#N)c1ccc(C(N=Nc2ccccc2)=Nc2ccc(Cl)cc2)cc1
4. COc1cc(C(=O)C2C(=O)c3ccccc3C2C2(O)c3ccccc3CC2C(O)c2cc(OC)c(OC)c(OC)c2)cc(OC)c1OC (stereo unspecified)

Response:
> 100 µM
> 100 µM
> 100 µM
> 100 µM

---

system: KM12 colon; assay: NCI tumour cell line growth inhibition, 48 h
Would you kindly list TGI for each of these compounds?

Example results:
{"columns": ["COMPOUND", "ASSAY RESULT"],
 "data": [
  ["Cc1cc(Cl)ccc1NC(=O)CCCC(=O)C1CCC/C1=N\\NC(=O)CC#N (stereo not given)", "> 100 µM"],
  ["COc1cccc(C2ON=C(c3ccccc3)N2C23CC4CC(CC(C4)C2)C3)c1 (stereo not given)", "> 10 µM"],
  ["CCOC(=O)C1=C(C)N(Cc2ccccc2)C(=O)C1CC#N (stereo not given)", "> 100 µM"],
  ["CC(=O)c1ccc(Nc2nc(Nc3ccc(F)cc3)nc(Nc3ccc(F)cc3)n2)cc1", "97.9 µM"]
]}

# next compound below
Request: Please report the measured TGI for `CCN1C(=O)/C(=C2\SC(c3ccccc3)(c3ccccc3)c3ccccc32)SC1=S`
Response: > 100 µM

---

test system: UACC-62 melanoma; test: NCI tumour cell line growth inhibition, 48 h
Would you kindly list TGI for each of these compounds?

Example results:
{"columns": ["COMPOUND", "PROPERTY LABEL", "ASSAY RESULT"],
 "data": [
  ["O=C(O)C1CCC(=O)N1S(=O)(=O)c1ccccc1 (stereo not drawn)", "TGI", "> 100 µM"],
  ["COC(=O)C(C(=O)C(=O)Nc1ccccc1C#N)c1nc2ccc([N+](=O)[O-])cc2[nH]c1=O (stereo not drawn)", "TGI", "> 100 µM"]
]}

# next compound below
Request: Please report the measured TGI for `Cc1ccc(NCC(=O)N2CC(=O)Nc3ccccc32)cc1`
Response: > 100 µM

---

system: OVCAR-3 ovarian; test: NCI tumour cell line growth inhibition, 48 h
Would you kindly list TGI for each of these molecules?

Example results:
{"columns": ["MOLECULE", "TGI"],
 "data": [
  ["COC(=O)C(CC(C)=O)CS(=O)(=O)CC(=O)C(=O)Nc1cccc([N+](=O)[O-])c1 (stereo not given)", "> 100 µM"],
  ["CN1C(=O)C(C(N)=O)C2CC1(C)Oc1ccccc12 (stereo not given)", "> 100 µM"],
  ["CCC(=O)NC(Nc1cccc(F)c1)(C(F)(F)F)C(F)(F)F", "> 100 µM"],
  ["NC1=NN(c2ccccc2)C(=O)C1/C(=N\\NC(=O)c1cc2ccccc2cc1O)C(=O)Nc1cccc(C(F)(F)F)c1 (stereo not given)", "> 100 µM"],
  ["COC(=O)[C@@]1(Cc2ccc(O)cc2)C[C@@H]2Cc3ccccc3N2N1", "> 100 µM"]
]}

Your task in this section: give TGI for each listed record.
1. CCCC(N)C(=O)c1ccccc1 (stereo not given)
2. COC(=O)C[CH2][Ge]([CH3])([CH3])[S]c1ccccc1
3. CCOc1ccc(/C(C=O)=C(\Cl)c2ccc(OC)c(OC)c2)cc1
4. O=C(O)CC1NC(/C(=C/c2ccccc2O)NC(=O)c2ccccc2)OC1=O (stereo not given)

Response:
> 100 µM
> 100 µM
> 100 µM
> 61.2 µM

---

test system: 786-0 renal; test: NCI tumour cell line growth inhibition, 48 h
PROPERTY LABEL: TGI (µM)
Numbers only, in µM.

Your task in this section: give TGI for each listed record.
1. COC(=O)c1ccc(NCc2c(O)ccc(O)c2Br)cc1Cl
2. O=C1C(Nc2ccc(Br)cc2)=C(I)C(=O)c2ncccc21

Response:
[32.6, 2.21]

---

test system: OVCAR-5 ovarian; experiment: NCI tumour cell line growth inhibition, 48 h
Would you kindly list GI50 for each of these compounds?

{"columns": ["COMPOUND", "PROPERTY LABEL", "ASSAY RESULT"],
 "data": [
  ["O=c1c2cccc(F)c2sc2c(N3CCNCC3)nc3ccccc3c12", "GI50", "1590 nM"],
  ["Cc1ccc(/C=C/C(=N/N=C(N)N)c2ccccc2)cc1", "GI50", "2970 nM"],
  ["O=C(NNc1ccc(F)cc1)C1CCC(CNS(=O)(=O)c2ccc(Cl)c(Cl)c2)CC1 (centres undefined)", "GI50", "7700 nM"],
  ["NCCCn1c2c(c3ccc([N+](=O)[O-])cc3c1=O)C(=O)c1cc(-c3ccccc3)ccc1-2", "GI50", "1480 nM"],
  ["CN(C)CCC=C1c2ccccc2C(C)(C)c2ccccc21", "GI50", "15900 nM"],
  ["NCCCCCCCCCCCn1c2c(c3ccccc3c1=O)C(=O)c1ccccc1-2", "GI50", "2480 nM"],
  ["CC1=C(C(=O)Nc2ccc3[nH]ncc3c2)C(c2ccc(Cl)c(Cl)c2)CC(=O)N1 (centres undefined)", "GI50", "> 25000 nM"],
  ["COc1cc2nc(-c3ccc(Cl)cc3)cc(OCCCN3CCCC3)c2cc1OC", "GI50", "1030 nM"]
]}

# next compound below
Request: Quote OVCAR-5 ovarian GI50 for entry CC[C@@H](C(=O)[C@H](C)[C@H](O)[C@@H](C)[C@H]1O[C@H]([C@@H](CC)C(=O)O)CC[C@H]1C)C1O[C@]2(C=C[C@@H](O)[C@]3(CC[C@@](C)([C@H]4CC[C@](O)(CC)[C@H](C)O4)O3)O2)[C@H](C)C[C@@H]1C (some centres undefined) .
Response: 1070 nM

---

test system: HOP-62 NSCLC; experiment: NCI tumour cell line growth inhibition, 48 h
PROPERTY LABEL: GI50

{"columns": ["MOLECULE", "ASSAY RESULT"],
 "data": [
  ["CCCC[n+]1c(/C=C\\c2c(OC)cc(OC)cc2OC)ccc2ccccc21", "2.58 µM"]
]}

Your task in this section: give GI50 for each listed record.
1. C=C1CC[C@@H]2[C@](C)(COC(C)=O)[C@H](OC(C)=O)CC[C@@]2(C)[C@@H]1CC(Nc1ccc(S(=O)(=O)Nc2cc(C)on2)cc1)C1=CCOC1=O (some centres not stated)
2. CCC(C)[C@H](NC(=O)NC(=O)NC(=O)CI)C(=O)OC (some centres not stated)
3. COc1cc(/C=C2\Oc3cc(OCCCN4CCCC4)ccc3C2=O)cc(OC)c1
4. O=C(O)C1C2C=CC(C2)C1C(=O)O (configuration not stated)
5. CCOC(=O)c1ccc2c(c1)nc(/C=C/c1ccc(Cl)cc1)n2-c1cc(C(C)(C)C)[nH]n1

Response:
8.88 µM
16.3 µM
3.68 µM
> 100 µM
5.24 µM

Request: Please report the measured GI50 for `Cc1[nH]c(C(=O)Nc2ccccc2OC2CCNCC2)c(Cl)c1Cl`
Response: 0.812 µM
